# targetUnderTest: T1, biotinylated CD32bECDHis (human, UniProt P31994 43-223, limits assumed, biotinylated (sites not given))
# T1 sequence (looked up): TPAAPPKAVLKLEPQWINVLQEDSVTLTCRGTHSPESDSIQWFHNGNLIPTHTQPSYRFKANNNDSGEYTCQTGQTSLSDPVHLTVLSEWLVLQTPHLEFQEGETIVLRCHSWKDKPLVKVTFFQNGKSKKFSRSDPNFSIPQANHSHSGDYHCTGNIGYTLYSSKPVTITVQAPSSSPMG
# methodNotes: competition ELISA, competitor 2B6
measure: % residual binding (%)
The reply should be a number in %, with the unit left off.

# binder, % residual binding (%)
measured = [
    ("Antibody 028 (antibody, V domains shown, List 1 gives no VL for antibody 028; The VL is therefore uncertain; also called HuMab 028) VH: QVQVVQSGAEVKKPGASVKVSCKTSGYTFTSYGISWVRQAPGQGLEWMGWISAYNGNTKYAQKLQGRLTMTTDTSTTTAYMELRSLRSDDTAVYYCARDSAAHGMDVWGQGTTVSVSS VL: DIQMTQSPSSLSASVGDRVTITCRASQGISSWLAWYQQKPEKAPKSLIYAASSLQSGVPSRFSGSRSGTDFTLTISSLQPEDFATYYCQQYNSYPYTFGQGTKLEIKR", 125),
    ("Antibody 038 (antibody, human IgG1, V domains shown, Human antibody; also called HuMab 038) VH: QVQLVESGGGVVQPGRSLRLSCAASGFTFSTYGMHWVRQAPGKGLEWVAVISHDGSDKYYADSVKGRFTISRDNSKNTLYLQMNSLRAEDTAVYYCARDQSIIETFDYWGQGTLVTVSS VL: EIVLTQSPATLSLSPGERATLSCRASQSVSSYLAWYQQKPGQAPRLLIYDASNRATGIPARFSGSGSGTDFTLTISSLEPEDFAVYYCQQRSNWGFTFGPGTKVDIKR", 5),
    ("Antibody 063 (antibody, human IgG1, V domains shown, Human antibody; also called HuMab 063) VH: EVQLLESGGGLVQPGGSLRLSCAASGFTFSSYAMSWVRQAPGKGLEWVSAISDSGGSTYYADSVKGRFTISRDNSKNTLYLQMNSLRAEDTAAYYCAKEIAVALFDYWGQGTLVTVSS VL: EIVLTQSPATLSLSPGERATLSCRASQSVSSYLAWYQQKPGQAPRLLIYDASNRATGIPARFSGSGSGTDFTLTISSLEPEDFAVYYCQQRSSWPPYTFGQGTKLEIKR", 98),
]

Now for the binder whose % residual binding we want.
Per the record, Antibody 020 (antibody, V domains shown, also called HuMab 020) VH: QVQLVQSGGEVKKPGASVKVSCKTSGYTFTSYGISWVRQAPGQGLEWMGWISAYNGNTKYAQKLQGRLTMTTDTSTTTAYMELRSLRSDDTAVYYCARDSAAHGMDVWGQGTTVTVSS VL: DIQMTQSPSSLSASVGDRVTITCRASQGISSWLAWYQQKPEKAPKSLIYAASSLQSGVPSRFRGSGSGTDFTLTISSLQPEDFATYYCQQYNSYPYTFGQGTKLEIKR has % residual binding of 126
